# testDetails: DLS size of dendrimersomes assembled from glycerol-JDs in water at different concentrations
# Format: physicochemical
# runParameters: JD 0.5 mg·mL−1 in water; size distribution by intensity
readoutType: Dh (nm)

Which measured Dh (nm) value corresponds to CCCCCCCCCCCCOc1cc(OCCCCCCCCCCCC)cc(C(=O)OCC(C)(COC(=O)c2cc(OCCCCCCCCCCCC)cc(OCCCCCCCCCCCC)c2)C(=O)OC[C@@H](COC(=O)c2cc(OCCOCCOCCOC)c(OCCOCCOCCOC)c(OCCOCCOCCOC)c2)OC(=O)c2cc(OCCOCCOCCOC)c(OCCOCCOCCOC)c(OCCOCCOCCOC)c2)c1 [Compound 2R, (3,5)-12G1-BMPA-GC-(R)-(3,4,5)-3EO-G1] ?
319 nm

====

Measured Dh (nm) values are reported for all entries that follow.
# testDetails: DLS size of dendrimersomes assembled from glycerol-JDs in water at different concentrations
# Assay type: physicochemical
# runParameters: JD 0.1 mg·mL−1 in water; size distribution by intensity
# Description: Assembly of all eight glycerol-JDs was performed by injection of their ethanol solution (50 μL) into 1 mL of Milli-Q water. The size distribution and structure of resulting DSs were analyzed by DLS (FIG. 84) and cryo-TEM. […] In a certain concentration range the size of DSs increased with the concentration of JDs injected in water or buffer. […] The dimensions of the assemblies were identical when the concentrations of the JDs in water were identical. […]
The figure you give is taken to be in nm; do not add the unit.

Solved entries (count: 6):
>  <compound>
CCCCCCCCCCCCOc1cc(OCCCCCCCCCCCC)cc(C(=O)OC[C@H](COC(=O)C(C)(COC(=O)c2cc(OCCOCCOCCOC)c(OCCOCCOCCOC)c(OCCOCCOCCOC)c2)COC(=O)c2cc(OCCOCCOCCOC)c(OCCOCCOCCOC)c(OCCOCCOCCOC)c2)OC(=O)c2cc(OCCCCCCCCCCCC)cc(OCCCCCCCCCCCC)c2)c1 [Compound 1R, (3,5)-12G1-GC-(R)-BMPA-(3,4,5)-3EO-G1]

>  <unitText>
nm

>  <Dh (nm)>
110

$$$$
>  <compound>
CCCCCCCCCCCCOc1cc(OCCCCCCCCCCCC)cc(C(=O)OCC(COC(=O)C(C)(COC(=O)c2cc(OCCOCCOCCOC)c(OCCOCCOCCOC)c(OCCOCCOCCOC)c2)COC(=O)c2cc(OCCOCCOCCOC)c(OCCOCCOCCOC)c(OCCOCCOCCOC)c2)OC(=O)c2cc(OCCCCCCCCCCCC)cc(OCCCCCCCCCCCC)c2)c1 (racemic) [Compound 1rac, (3,5)-12G1-GC-(rac)-BMPA-(3,4,5)-3EO-G1]

>  <unitText>
nm

>  <Dh (nm)>
123

$$$$
>  <compound>
CCCCCCCCCCCCOc1cc(OCCCCCCCCCCCC)cc(C(=O)OCC(C)(COC(=O)c2cc(OCCCCCCCCCCCC)cc(OCCCCCCCCCCCC)c2)C(=O)OC[C@@H](COC(=O)c2cc(OCCOCCOCCOC)c(OCCOCCOCCOC)c(OCCOCCOCCOC)c2)OC(=O)c2cc(OCCOCCOCCOC)c(OCCOCCOCCOC)c(OCCOCCOCCOC)c2)c1 [Compound 2R, (3,5)-12G1-BMPA-GC-(R)-(3,4,5)-3EO-G1]

>  <unitText>
nm

>  <Dh (nm)>
111

$$$$
>  <compound>
CCCCCCCCCCCCOc1cc(OCCCCCCCCCCCC)cc(C(=O)OCC(C)(COC(=O)c2cc(OCCCCCCCCCCCC)cc(OCCCCCCCCCCCC)c2)C(=O)OC(COC(=O)c2cc(OCCOCCOCCOC)c(OCCOCCOCCOC)c(OCCOCCOCCOC)c2)COC(=O)c2cc(OCCOCCOCCOC)c(OCCOCCOCCOC)c(OCCOCCOCCOC)c2)c1

>  <unitText>
nm

>  <Dh (nm)>
119

$$$$
>  <compound>
CCCCCCCCCCCCOc1cc(OCCCCCCCCCCCC)cc(C(=O)OCC(C)(COC(=O)c2cc(OCCCCCCCCCCCC)cc(OCCCCCCCCCCCC)c2)C(=O)OC[C@H](COC(=O)c2cc(OCCOCCOCCOC)c(OCCOCCOCCOC)c(OCCOCCOCCOC)c2)OC(=O)c2cc(OCCOCCOCCOC)c(OCCOCCOCCOC)c(OCCOCCOCCOC)c2)c1 [Compound 2S, (3,5)-12G1-BMPA-GC-(S)-(3,4,5)-3EO-G1]

>  <unitText>
nm

>  <Dh (nm)>
112

$$$$
>  <compound>
CCCCCCCCCCCCOc1cc(OCCCCCCCCCCCC)cc(C(=O)OCC(COC(=O)c2cc(OCCCCCCCCCCCC)cc(OCCCCCCCCCCCC)c2)OC(=O)C(C)(COC(=O)c2cc(OCCOCCOCCOC)c(OCCOCCOCCOC)c(OCCOCCOCCOC)c2)COC(=O)c2cc(OCCOCCOCCOC)c(OCCOCCOCCOC)c(OCCOCCOCCOC)c2)c1

>  <unitText>
nm

>  <Dh (nm)>
123

$$$$

Next compound, Dh (nm) to be filled in.
Which measured Dh (nm) value corresponds to CCCCCCCCCCCCOc1cc(OCCCCCCCCCCCC)cc(C(=O)OC[C@@H](COC(=O)C(C)(COC(=O)c2cc(OCCOCCOCCOC)c(OCCOCCOCCOC)c(OCCOCCOCCOC)c2)COC(=O)c2cc(OCCOCCOCCOC)c(OCCOCCOCCOC)c(OCCOCCOCCOC)c2)OC(=O)c2cc(OCCCCCCCCCCCC)cc(OCCCCCCCCCCCC)c2)c1 [Compound 1S, (3,5)-12G1-GC-(S)-BMPA-(3,4,5)-3EO-G1] ?
100

====

# testDetails: DLS size of dendrimersomes assembled from glycerol-JDs in water at different concentrations
# Type: physicochemical
# runParameters: JD 0.15 mg·mL−1 in water; size distribution by intensity
# Procedure: Assembly of all eight glycerol-JDs was performed by injection of their ethanol solution (50 μL) into 1 mL of Milli-Q water. The size distribution and structure of resulting DSs were analyzed by DLS (FIG. 84) and cryo-TEM. […] In a certain concentration range the size of DSs increased with the concentration of JDs injected in water or buffer. […] The dimensions of the assemblies were identical when the concentrations of the JDs in water were identical. […]
Measured Dh (nm) values are reported for all entries that follow.
The figure you give is taken to be in nm; do not add the unit.

Solved entries (count: 4):
>  <compound>
CCCCCCCCCCCCOc1cc(OCCCCCCCCCCCC)cc(C(=O)OCC(COC(=O)C(C)(COC(=O)c2cc(OCCOCCOCCOC)c(OCCOCCOCCOC)c(OCCOCCOCCOC)c2)COC(=O)c2cc(OCCOCCOCCOC)c(OCCOCCOCCOC)c(OCCOCCOCCOC)c2)OC(=O)c2cc(OCCCCCCCCCCCC)cc(OCCCCCCCCCCCC)c2)c1 (racemic) [Compound 1rac, (3,5)-12G1-GC-(rac)-BMPA-(3,4,5)-3EO-G1]

>  <Dh (nm)>
128

$$$$
>  <compound>
CCCCCCCCCCCCOc1cc(OCCCCCCCCCCCC)cc(C(=O)OC[C@@H](COC(=O)C(C)(COC(=O)c2cc(OCCOCCOCCOC)c(OCCOCCOCCOC)c(OCCOCCOCCOC)c2)COC(=O)c2cc(OCCOCCOCCOC)c(OCCOCCOCCOC)c(OCCOCCOCCOC)c2)OC(=O)c2cc(OCCCCCCCCCCCC)cc(OCCCCCCCCCCCC)c2)c1 [Compound 1S, (3,5)-12G1-GC-(S)-BMPA-(3,4,5)-3EO-G1]

>  <Dh (nm)>
124

$$$$
>  <compound>
CCCCCCCCCCCCOc1cc(OCCCCCCCCCCCC)cc(C(=O)OCC(C)(COC(=O)c2cc(OCCCCCCCCCCCC)cc(OCCCCCCCCCCCC)c2)C(=O)OC[C@@H](COC(=O)c2cc(OCCOCCOCCOC)c(OCCOCCOCCOC)c(OCCOCCOCCOC)c2)OC(=O)c2cc(OCCOCCOCCOC)c(OCCOCCOCCOC)c(OCCOCCOCCOC)c2)c1 [Compound 2R, (3,5)-12G1-BMPA-GC-(R)-(3,4,5)-3EO-G1]

>  <Dh (nm)>
125

$$$$
>  <compound>
CCCCCCCCCCCCOc1cc(OCCCCCCCCCCCC)cc(C(=O)OCC(C)(COC(=O)c2cc(OCCCCCCCCCCCC)cc(OCCCCCCCCCCCC)c2)C(=O)OC[C@H](COC(=O)c2cc(OCCOCCOCCOC)c(OCCOCCOCCOC)c(OCCOCCOCCOC)c2)OC(=O)c2cc(OCCOCCOCCOC)c(OCCOCCOCCOC)c(OCCOCCOCCOC)c2)c1 [Compound 2S, (3,5)-12G1-BMPA-GC-(S)-(3,4,5)-3EO-G1]

>  <Dh (nm)>
119

$$$$

Next compound, Dh (nm) to be filled in.
Which measured Dh (nm) value corresponds to CCCCCCCCCCCCOc1cc(OCCCCCCCCCCCC)cc(C(=O)OC[C@H](COC(=O)C(C)(COC(=O)c2cc(OCCOCCOCCOC)c(OCCOCCOCCOC)c(OCCOCCOCCOC)c2)COC(=O)c2cc(OCCOCCOCCOC)c(OCCOCCOCCOC)c(OCCOCCOCCOC)c2)OC(=O)c2cc(OCCCCCCCCCCCC)cc(OCCCCCCCCCCCC)c2)c1 [Compound 1R, (3,5)-12G1-GC-(R)-BMPA-(3,4,5)-3EO-G1] ?
124
